Origin of the recorded values: PubChem BioAssay (NCATS)

Experiment: Quantitative highthroughput screen to assess conditional lethalithy of SEM cells grown in RPMI1640 with dialyzed fetal bovine serum (RPMI+ds) (AID 1963884); also: nearly all actives have a fitted effect of over 35% in size;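 as to viability: 100% = DMSO control wells and 0% = empty wells without cells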
Conditions: SEM B-ALL cells, RPMI+dialyzed FBS, CellTiter-Glo viability, 48 h; series mostly up to 45.8 µM
Inconclusive results are not listed. Active and inactive are the calls of the source. Calls follow the shape of the dose curve; as a rule, active = well fitted cell-killing curve with a large enough effect; inconclusive = small, poorly fitted or top-dose-only effect, or effect the other way; inactive = no such curve, though single readings can be large or run the other way.
Write down one outcome, taken from yes (1) = active, no (0) = inactive

O=C(O)CSCC(=O)NC1CCSC1=O (centres undefined)
no (0)
CC(C)NC[C@@H](C(=O)N1CCN(c2ncnc3c2[C@H](C)C[C@H]3O)CC1)c1ccc(Cl)cc1
yes (1)
COc1cc(C[C@@H](CO)[C@H](CO)Cc2ccc(O)c(OC)c2)ccc1O
no (0)
CN1CCC(COc2cnc(-c3cccc(Cn4nc(-c5cccc(C#N)c5)ccc4=O)c3)nc2)CC1
no (0)
CN(C)CCc1c[nH]c2ccc(C[C@H]3COC(=O)N3)cc12
yes (1)

*Q* Assay outcome for COc1cccc2nc(-c3cccs3)nc(NN3C(=O)C=C(C)C3=O)c12 : what was it?
*A* yes (1)

*Q* Name the outcome recorded for Nc1nc(F)nc2c1ncn2[C@@H]1O[C@H](COP(=O)(O)O)[C@@H](O)[C@H]1O in the assay.
*A* yes (1)

*Q* For this compound, state the assay outcome: CN(C)CC[C@H](CSc1ccccc1)Nc1ccc(S(=O)(=O)NC(=O)c2ccc(N3CCN(Cc4ccccc4-c4ccc(Cl)cc4)CC3)cc2)cc1[N+](=O)[O-]
*A* yes (1)

*Q* Which result was noted for this compound in the test: C=CC(=O)Nc1cccc(Oc2nc(Nc3ccc(N4CCN(C)CC4)cc3)ncc2Cl)c1
*A* yes (1)
